Origin of the recorded values: the supplement of paper PMC10567573

B1: PRKX (parent)
chain: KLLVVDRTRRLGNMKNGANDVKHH

variants of: B1; assay: protein stability index of a GFP-peptide fusion (GPS, HEK-293T) (PSI 1-6); higher = more stable; details: c terminus: a fixed tail appended;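 further: lentivirally expressed fusions sorted by FACS into six bins by GFP to DsRed ratio, PSI derived from sequencing read proportions per bin multiplied by bin number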
Values of protein stability index greater than or equal to 3 map to true; values below map to false.

// below: answered variants
Mutation label: R9A
Category label: true
--
Mutation label: D6K
Category label: false
--
Mutation label: L2H
Category label: true
--
Mutation label: V5L
Category label: false
--
Mutation label: R9F
Category label: false

Quick check: does `N19D` have protein stability index greater than or equal to 3?
true

Answer whether protein stability index of `K1V` is greater than or equal to 3.
false

Given `D6W` , state whether its protein stability index is at least 3.
false

Quick check: does `N16K` have protein stability index greater than or equal to 3?
true

Given the entry `R10P` , answer whether its protein stability index meets or surpasses 3.
true
